- Test system: rodent lifetime carcinogenesis bioassay, tumor incidence TD50
- run_description: carcinogenic potency in animals, long-term in vivo studies, CPDB compilation (AID 1745844)
- experimental_setup: mouse; strain Swiss albino; males; in drinking water; site: lung; lesion: adenoma; dosed 80 weeks; study length 80 weeks
test_readout: TD50

I'd like to know its TD50. The molecule in question is NNC(=O)c1ccncc1 124 mg/kg/day

* * *

- Tested on: rodent lifetime carcinogenesis bioassay, tumor incidence TD50
- run_description: carcinogenic potency in animals, long-term in vivo studies, CPDB compilation (AID 1745844)
- experimental_setup: rat; strain Fischer 344; males; in drinking water; site: tongue; lesion: basal-cell carcinoma; dosed 100 weeks; study length 115 weeks
test_readout: TD50

I'd like to know its TD50. The compound in question is O=NN1CCCCCCC1 0.105 mg/kg/day

* * *

- Tested on: rodent lifetime carcinogenesis bioassay, tumor incidence TD50
- run_description: carcinogenic potency in animals, long-term in vivo studies, CPDB compilation (AID 1745844)
- experimental_setup: mouse; strain B6C3F1; females; in feed; site: liver + ovary; lesion: hepatocellular carcinoma + granulosa-cell tumor + luteoma + tubular adenoma; dosed 78 weeks; study length 96 weeks
test_readout: TD50 (mg/kg/day)
Answer format: numeric, mg/kg/day implied, no suffix.

I'd like to know its TD50. The compound in question is O=[N+]([O-])c1ccc2c3c(cccc13)CC2 45.3

* * *

- System: rodent lifetime carcinogenesis bioassay, tumor incidence TD50
- run_description: carcinogenic potency in animals, long-term in vivo studies, CPDB compilation (AID 1745844)
- experimental_setup: rat; strain Fischer 344; males; by gavage; site: kidney; lesion: tubular-cell adenoma + tubular-cell adenocarcinoma; dosed 104 weeks; study length 105 weeks
test_readout: TD50

I'd like to know its TD50. The compound in question is CCCC(Cl)CCCC(Cl)CCC(Cl)CCC(Cl)CCC(Cl)CCCC(Cl)CCC (stereo unspecified) 196 mg/kg/day

* * *

- Tested on: rodent lifetime carcinogenesis bioassay, tumor incidence TD50
- run_description: carcinogenic potency in animals, long-term in vivo studies, CPDB compilation (AID 1745844)
- experimental_setup: mouse; strain B6C3F1; females; by gavage; site: thyroid gland; lesion: follicular-cell adenoma; dosed 103 weeks; study length 104 weeks
Calls of active or inactive are those of the source. How the calls were made is not given here.
Please state which outcome applies, choosing from yes (1) = active, no (0) = inactive

# compound, test_target, class_name
records = [
    ("CCCC(Cl)CCCC(Cl)CCC(Cl)CCC(Cl)CCC(Cl)CCCC(Cl)CCC (configuration not stated)", "rodent lifetime carcinogenesis bioassay, tumor incidence TD50", "yes (1)"),
]

GET /call?item= Cc1cccc(C)c1 returns the recorded outcome of this test. no (0)

* * *

- Tested on: rodent lifetime carcinogenesis bioassay, tumor incidence TD50
- run_description: carcinogenic potency in animals, long-term in vivo studies, CPDB compilation (AID 1745844)
- experimental_setup: mouse; strain ICR; males; in feed; site: kidney; lesion: adenocarcinoma; dosed 102 weeks; study length 104 weeks
test_readout: TD50 (mg/kg/day)
Answer format: numeric, mg/kg/day implied, no suffix.

I'd like to know its TD50. The compound in question is [CH3][Hg][Cl] 1.88

* * *

- Tested on: rodent lifetime carcinogenesis bioassay, tumor incidence TD50
- run_description: carcinogenic potency in animals, long-term in vivo studies, CPDB compilation (AID 1745844)
- experimental_setup: mouse; strain Swiss albino; males; in drinking water; site: lung; lesion: adenoma; dosed 82 weeks; study length 82 weeks
test_readout: TD50 (mg/kg/day)
Answer format: numeric, mg/kg/day implied, no suffix.

I'd like to know its TD50. The compound in question is C=CCNNCC=C 35.4

* * *

- Test system: rodent lifetime carcinogenesis bioassay, tumor incidence TD50
- run_description: carcinogenic potency in animals, long-term in vivo studies, CPDB compilation (AID 1745844)
- experimental_setup: rat; strain Fischer 344; females; by gavage; site: lung; lesion: alveolar/bronchiolar adenoma; dosed 130 weeks; study length 130 weeks
test_readout: TD50 (mg/kg/day)
Answer format: numeric, mg/kg/day implied, no suffix.

I'd like to know its TD50. The compound in question is CN(CCCO)N=O 14.4

* * *

- Tested on: rodent lifetime carcinogenesis bioassay, tumor incidence TD50
- run_description: carcinogenic potency in animals, long-term in vivo studies, CPDB compilation (AID 1745844)
- experimental_setup: rat; strain Fischer 344; females; in feed; site: adrenal gland; lesion: pheochromocytoma; dosed 80 weeks; study length 80 weeks
Calls of active or inactive are those of the source. The rule behind the calls is not given here.
test_readout: TD50

I'd like to know its TD50. The molecule in question is Nc1ccc(N)cc1 4280 mg/kg/day (inactive)

* * *

- Test system: rodent lifetime carcinogenesis bioassay, tumor incidence TD50
- run_description: carcinogenic potency in animals, long-term in vivo studies, CPDB compilation (AID 1745844)
- experimental_setup: rat; strain Fischer 344; males; in drinking water; site: liver; lesion: hepatocellular carcinoma; dosed 48 weeks; study length 95 weeks
test_readout: TD50

I'd like to know its TD50. The compound in question is O=NN(CCO)CCO 2.77 mg/kg/day

* * *

- Tested on: rodent lifetime carcinogenesis bioassay, tumor incidence TD50
- run_description: carcinogenic potency in animals, long-term in vivo studies, CPDB compilation (AID 1745844)
- experimental_setup: mouse; strain Swiss albino; females; in drinking water; site: liver; lesion: hepatoma; dosed 121 weeks; study length 121 weeks
Activity calls are given as the source filed them. No rule for the calls is given here.
test_readout: TD50

State its TD50 on rodent lifetime carcinogenesis bioassay, tumor incidence TD50: NC(=O)c1ccncc1 21300 mg/kg/day (inactive)

* * *

- Test system: rodent lifetime carcinogenesis bioassay, tumor incidence TD50
- run_description: carcinogenic potency in animals, long-term in vivo studies, CPDB compilation (AID 1745844)
- experimental_setup: mouse; strain B6C3F1; females; by gavage; site: liver; lesion: hepatocellular adenoma + hepatocellular carcinoma + neoplastic nodule; dosed 103 weeks; study length 104 weeks
Lab note: compare TD50 with 1000 mg/kg/day, writing 1 if less and 0 if equal or more.

See these solved cases before continuing.
# compound, class_name
rows = [
    ("Cc1cccc(C)c1", 0),
    ("ClC(Cl)C(Cl)(Cl)Cl", 1),
    ("COc1c(Cl)c(Cl)c(Cl)c(Cl)c1Cl", 1),
    ("OCc1ccccc1", 0),
    ("S=c1[nH]c2ccccc2s1", 0),
    ("c1ccc2occc2c1", 1),
    ("C=CC1CC=CCC1 (centres undefined)", 0),
    ("OC[P+](CO)(CO)CO", 1),
]

Determine whether this compound shows TD50 lower than 1000 mg/kg/day (ties excluded): CN(C)c1ccccc1 1

Determine whether this compound shows TD50 lower than 1000 mg/kg/day (ties excluded): O=[N+]([O-])c1ccc(Nc2ccc(Nc3ccccc3)c(S(=O)(=O)O)c2)c([N+](=O)[O-])c1 0

Determine whether this compound shows TD50 lower than 1000 mg/kg/day (ties excluded): ClCC(Cl)(Cl)Cl 1

Determine whether this compound shows TD50 lower than 1000 mg/kg/day (ties excluded): S=[Se] 1

Determine whether this compound shows TD50 lower than 1000 mg/kg/day (ties excluded): CCCN(CCC)S(=O)(=O)c1ccc(C(=O)O)cc1 1

Determine whether this compound shows TD50 lower than 1000 mg/kg/day (ties excluded): Nc1ccc(O)c(N)c1 0

* * *

- Tested on: rodent lifetime carcinogenesis bioassay, tumor incidence TD50
- run_description: carcinogenic potency in animals, long-term in vivo studies, CPDB compilation (AID 1745844)
- experimental_setup: rat; strain Fischer 344; females; in drinking water; site: skin; lesion: basal-cell adenoma + basal-cell carcinoma; dosed 60 weeks; study length 60 weeks
test_readout: TD50

State its TD50 on rodent lifetime carcinogenesis bioassay, tumor incidence TD50: Cc1cc(-c2ccc(N)c(C)c2)ccc1N 3.8 mg/kg/day

* * *

- Test system: rodent lifetime carcinogenesis bioassay, tumor incidence TD50
- run_description: carcinogenic potency in animals, long-term in vivo studies, CPDB compilation (AID 1745844)
- experimental_setup: mouse; strain Swiss; males; inhaled; site: any site (literature study); lesion: several types; types named in the paper; dosed 78 weeks; study length 104 weeks
Activity calls are given as the source filed them. The rule behind the calls is not given here.
test_readout: TD50

I'd like to know its TD50. The molecule in question is FC(F)(Cl)Cl 12100 mg/kg/day (inactive)

* * *

- Tested on: rodent lifetime carcinogenesis bioassay, tumor incidence TD50
- run_description: carcinogenic potency in animals, long-term in vivo studies, CPDB compilation (AID 1745844)
- experimental_setup: mouse; strain Charles River CD1; females; inhaled; site: lung; lesion: alveolar/bronchiolar adenoma; dosed 98 weeks; study length 98 weeks
test_readout: TD50

I'd like to know its TD50. The compound in question is C=Cc1ccccc1 331 mg/kg/day

* * *

- System: rodent lifetime carcinogenesis bioassay, tumor incidence TD50
- run_description: carcinogenic potency in animals, long-term in vivo studies, CPDB compilation (AID 1745844)
- experimental_setup: rat; strain Sprague-Dawley; females; in feed; site: intestine; lesion: hemangioendothelial sarcoma; dosed 42 weeks; study length 59 weeks
test_readout: TD50

I'd like to know its TD50. The compound in question is Cc1cc(C)nc(-c2ccc([N+](=O)[O-])o2)n1 3.43 mg/kg/day

Value source: PubChem BioAssay AID1745844
